Data origin: ChEMBL document CHEMBL1201862

# target of assay: Microphthalmia-associated transcription factor (Homo sapiens, UniProt O75030)
# Sequence (O75030 whole entry): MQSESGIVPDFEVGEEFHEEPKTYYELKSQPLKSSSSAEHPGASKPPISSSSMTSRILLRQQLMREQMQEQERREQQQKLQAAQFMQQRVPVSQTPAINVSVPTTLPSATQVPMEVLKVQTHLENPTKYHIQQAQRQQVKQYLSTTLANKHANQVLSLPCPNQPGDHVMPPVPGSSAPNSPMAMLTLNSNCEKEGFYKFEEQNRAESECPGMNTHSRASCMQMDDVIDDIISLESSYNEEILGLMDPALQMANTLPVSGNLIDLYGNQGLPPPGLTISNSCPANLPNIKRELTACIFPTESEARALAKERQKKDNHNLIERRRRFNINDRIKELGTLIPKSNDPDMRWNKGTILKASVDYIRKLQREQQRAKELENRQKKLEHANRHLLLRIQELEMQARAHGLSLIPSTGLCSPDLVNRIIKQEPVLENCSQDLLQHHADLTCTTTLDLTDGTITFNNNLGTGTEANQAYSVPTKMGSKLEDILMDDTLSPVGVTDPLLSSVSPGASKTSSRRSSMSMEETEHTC
# assay overview: reducers of TRPM1 reporter luminescence, concentration series – cell-based, SK-MEL-5, cherry-picked, set 3, MITF inhibitor project, dose response (AID 493073);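 note: SK-MEL-5 melanoma cells with luciferase driven by the MITF target TRPM1 promoter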
# Format: functional
Active and inactive are the calls of the source. The rule behind the calls is not given here.
measured attribute: AC50

>  <smiles representation>
Cc1ccc(NC(=O)CCC(=O)N/N=C/c2ccc([N+](=O)[O-])o2)cc1C

>  <measured attribute>
AC50

>  <result>
6.25 µM (active)

$$$$
>  <smiles representation>
O=C(CCl)Nc1cccc(S(=O)(=O)NC2=NCCCCC2)c1

>  <measured attribute>
AC50

>  <result>
7.85 µM (active)

$$$$
>  <smiles representation>
Cc1ccc(N2C(=O)NC(=O)/C(=C/C=C/c3ccco3)C2=O)cc1

>  <measured attribute>
AC50

>  <result>
5.97 µM (active)

$$$$

Your task in this section: give AC50 for each listed record.
1. CN1CCN(C2=C(NS(=O)(=O)c3ccccc3)C(=O)c3ccccc3C2=O)CC1
2. CN1CCN(C2=C(NS(=O)(=O)c3cccs3)C(=O)c3ccccc3C2=O)CC1

Found:
1: 6.9 µM (active); 2: 6.98 µM (active)

---

# target of assay: UniProt:Q06710
# Sequence (Q06710 whole entry): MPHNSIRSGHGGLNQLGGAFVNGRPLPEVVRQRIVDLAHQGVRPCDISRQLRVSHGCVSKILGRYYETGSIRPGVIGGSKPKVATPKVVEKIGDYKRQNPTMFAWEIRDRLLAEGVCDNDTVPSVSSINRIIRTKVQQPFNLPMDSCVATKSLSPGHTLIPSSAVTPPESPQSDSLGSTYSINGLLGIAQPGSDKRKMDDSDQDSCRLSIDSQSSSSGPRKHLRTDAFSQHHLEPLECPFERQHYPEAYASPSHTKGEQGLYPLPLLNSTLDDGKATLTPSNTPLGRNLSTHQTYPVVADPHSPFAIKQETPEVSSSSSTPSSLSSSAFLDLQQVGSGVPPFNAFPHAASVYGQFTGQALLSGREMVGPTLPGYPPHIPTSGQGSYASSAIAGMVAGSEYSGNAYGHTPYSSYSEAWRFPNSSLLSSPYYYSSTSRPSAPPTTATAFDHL
# assay overview: PAX8 transcriptional activity inhibition in RMG-I – RMG-I cells, luciferase, cherry-pick, dose response (AID 687027);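 note: luciferase reporter driven by Pax8 target thyroperoxidase promoter measured by SteadyGlo luminescence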
# Type: functional, cell-based
Activity calls are given as the source filed them. No rule for the calls is given here.
Answer each item with its documented AC50.

>  <molecule>
Cc1ccc2nc(-c3ccc(Br)cc3)cn2c1

>  <result>
11.2 µM (active)

$$$$
>  <molecule>
C[C@@H]1CN([C@H](C)CO)C(=O)c2cc(NC(=O)Nc3ccc(C(F)(F)F)cc3)ccc2O[C@@H](C)CCCCO[C@@H]1CN(C)C(=O)NC1CCCCC1

>  <result>
4.46 µM (active)

$$$$

Your task in this section: give AC50 for each listed record.
1. O=C(C[C@H]1CC[C@H]2[C@@H](COC[C@@H](O)CN2S(=O)(=O)c2cccc(Cl)c2)O1)Nc1ccc(-c2ccccc2)cc1
2. O=[N+]([O-])c1c(Nc2cccc(O)c2)cc(Cl)c2nonc12
3. C[C@@H]1CCCCO[C@H](CN(C)Cc2ccc(C(F)(F)F)cc2)[C@H](C)CN([C@@H](C)CO)C(=O)c2cc(NC(=O)Nc3ccc(F)cc3)ccc2O1
4. CCN(CC)c1ccc(C(NC(=O)C(C)C)c2ccc3cccnc3c2O)cc1 (stereo not drawn)
5. CC[C@@H](C)[C@H](CNC)NC[C@@H](Cc1cccc2ccccc12)NCCc1cccc(C(F)(F)F)c1
6. O=C(N/N=C/c1ccc(Cl)c([N+](=O)[O-])c1)c1cc(-c2ccc3c4c(cccc24)CC3)[nH]n1

Found:
["8.28 µM (active)", "7.24 µM (active)", "8.21 µM (active)", "1.09 µM (active)", "11.9 µM (active)", "3.25 µM (active)"]
